target: T1, human PTEFb (CDK9/Cyclin T1) (Homo sapiens, UniProt P50750); assay: Surface Plasmon Resonance PTEFb (Method 8); format: binding; details: 37° C.; experimental parameters E; read-out: Dissociation rate constant koff
T1 construct: purchased ProQinase, Freiburg, Germany
T1 sequence (P50750 whole entry): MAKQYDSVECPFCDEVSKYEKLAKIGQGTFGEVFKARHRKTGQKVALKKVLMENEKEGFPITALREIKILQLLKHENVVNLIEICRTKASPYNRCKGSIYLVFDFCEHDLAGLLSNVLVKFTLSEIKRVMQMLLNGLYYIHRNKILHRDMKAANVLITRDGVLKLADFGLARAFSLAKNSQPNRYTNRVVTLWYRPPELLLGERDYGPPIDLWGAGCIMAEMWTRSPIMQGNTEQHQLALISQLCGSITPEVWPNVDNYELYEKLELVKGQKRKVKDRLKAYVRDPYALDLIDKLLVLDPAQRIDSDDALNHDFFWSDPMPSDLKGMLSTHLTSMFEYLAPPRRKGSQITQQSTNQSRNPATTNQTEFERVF
T1 sequence (O60563 whole entry partner): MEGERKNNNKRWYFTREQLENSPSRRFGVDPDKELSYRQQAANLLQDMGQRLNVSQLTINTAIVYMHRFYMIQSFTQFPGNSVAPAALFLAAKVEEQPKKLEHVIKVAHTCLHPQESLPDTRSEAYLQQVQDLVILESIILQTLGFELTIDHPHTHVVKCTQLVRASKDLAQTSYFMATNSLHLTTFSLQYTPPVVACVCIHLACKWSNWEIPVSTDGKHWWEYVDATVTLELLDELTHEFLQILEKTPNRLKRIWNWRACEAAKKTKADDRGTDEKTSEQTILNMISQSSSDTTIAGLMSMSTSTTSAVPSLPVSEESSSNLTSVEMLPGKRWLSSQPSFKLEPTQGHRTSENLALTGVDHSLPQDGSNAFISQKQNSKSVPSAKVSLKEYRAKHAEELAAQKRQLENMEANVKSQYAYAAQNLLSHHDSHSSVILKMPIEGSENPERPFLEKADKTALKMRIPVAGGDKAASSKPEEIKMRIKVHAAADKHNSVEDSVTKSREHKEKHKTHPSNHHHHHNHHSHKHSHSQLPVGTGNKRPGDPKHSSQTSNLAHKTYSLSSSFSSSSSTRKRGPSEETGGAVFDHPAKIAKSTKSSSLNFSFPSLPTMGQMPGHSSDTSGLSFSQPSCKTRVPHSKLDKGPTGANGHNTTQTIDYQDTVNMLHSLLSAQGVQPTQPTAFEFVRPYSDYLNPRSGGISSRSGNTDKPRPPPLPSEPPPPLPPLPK
Property: koff (s⁻¹)

Molecule	koff / s⁻¹
CS(=N)(=O)Cc1cc2cc(c1)Nc1ncc(F)c(n1)-c1ccc(F)cc1OCCCCN2 (racemic)	0.00113

a = CS(=N)(=O)Cc1cc2cc(c1)OCCCCSc1cc(F)ccc1-c1nc(ncc1F)N2 (racemic)
b = CN1CCCCNc2cc(F)ccc2-c2nc(ncc2F)Nc2cc(CS(C)(=N)=O)cc1c2.O=CO (racemic)
c = CS(=N)(=O)Cc1cc2cc(c1)OCCCCNc1cc(F)ccc1-c1nc(ncc1F)N2 (racemic)
**Q:** Sort by koff, descending. Please express your ranking as an ordered list of the labels.
**A:** a, c, b

----------
biological target: CDK9/CycT1 (Homo sapiens); construct: Recombinant full-length His-tagged human CDK9 and CycT1; His; purchased Invitrogen PV4131; host or cells: insect cells; assay: CDK9/CycT1 kinase assay (TR-FRET, Method 1a); assay type: biochemical; conditions: Method 1a, 10 μM ATP
Sequence (P50750 whole entry): as the sequence (P50750 whole entry) above
Sequence (O60563 whole entry partner): as the sequence (O60563 whole entry partner) above
Property: IC50 (nM)

Answered examples (8):
Molecule	Assay Target	Property	Unit Abbrev	Readout Number
CS(=N)(=O)Cc1cc2nc(c1)OCCCCCc1cc(F)ccc1-c1cc(ncc1F)N2 (racemic) [Example 20]	CDK9/CycT1 (Homo sapiens)	IC50	nM	5.5
C[S+]([O-])Cc1cc2nc(c1)OCCCCCc1cc(F)ccc1-c1cc(ncc1F)N2 (racemic) [Example 19]	CDK9/CycT1 (Homo sapiens)	IC50	nM	15
CN1CCCCOc2cc(F)ccc2-c2nc(ncc2F)Nc2cc(CS(C)(=N)=O)cc1c2 (racemic) [Example 23]	CDK9/CycT1 (Homo sapiens)	IC50	nM	5.2
CS(=N)(=O)Cc1cc2cc(c1)OCCCNc1cc(F)ccc1-c1nc(ncc1F)N2 (racemic) [Example 14]	CDK9/CycT1 (Homo sapiens)	IC50	nM	3.2
CSCc1cc2nc(c1)OCCCCc1cc(F)ccc1-c1cc(ncc1F)N2 [Example 4]	CDK9/CycT1 (Homo sapiens)	IC50	nM	36
CS(=N)(=O)Cc1cc2nc(c1)Nc1cc(c(F)cn1)-c1ccc(F)cc1OCCCCCN2 (racemic) [Example 10]	CDK9/CycT1 (Homo sapiens)	IC50	nM	3.4
C[S+]([O-])Cc1cc2nc(c1)OCCCCc1cc(F)ccc1-c1cc(ncc1F)N2 (racemic) [Example 5]	CDK9/CycT1 (Homo sapiens)	IC50	nM	6.2
CN1CCCCOc2cc(F)ccc2-c2cc(ncc2F)Nc2cc(CS(C)(=N)=O)cc1n2 (racemic) [Example 11]	CDK9/CycT1 (Homo sapiens)	IC50	nM	5.1

a = CS(=N)(=O)Cc1cc2nc(c1)Nc1cc(c(F)cn1)-c1ccc(F)cc1OCCCN2 (racemic) [Example 8]
b = CSCc1cc2nc(c1F)N(C)CCCCOc1cc(F)ccc1-c1cc(ncc1F)N2 [Example 12]
**Q:** So which one has the bigger IC50 here, a or b ? Respond with the label that goes with your answer.
**A:** b
(b: 25 nM, a: 2.7 nM)

----------
Target: CDK2/CycE (Homo sapiens, UniProt P24941)
Construct: GST; purchased ProQinase GmbH (Freiburg, Germany); host or cells: insect cells (Sf9)
Assay: CDK2/CycE kinase assay (TR-FRET, Method 2a)
Type: biochemical
Conditions: 10 μM ATP
Text: 2a. CDK2/CycE Kinase Assay: CDK2/CycE-inhibitory activity of compounds of the present invention was quantified employing the CDK2/CycE TR-FRET assay as described in the following paragraphs: Recombinant fusion proteins of GST and human CDK2 and of GST and human CycE, expressed in insect cells (Sf9) and purified by Glutathion-Sepharose affinity chromatography, were purchased from ProQinase GmbH (Freiburg, Germany). […]
pIC50: −log10 of the molar value.
Property: pIC50

Compound	Readout Number
CN1CCCCOc2cc(F)ccc2-c2cc(ncc2F)Nc2cc(CS(C)(=N)=O)cc1n2 (racemic)	7.47
C[S+]([O-])Cc1cc2nc(c1)OCCCCCc1cc(F)ccc1-c1cc(ncc1F)N2 (racemic)	6.43

A = CC(C)(C)OC(=O)N=S(C)(=O)Cc1cc2cc(c1)OCCCCNc1cc(F)ccc1-c1nc(ncc1F)N2 (racemic)
B = CC(C)(C)OC(=O)N=S(C)(=O)Cc1cc2nc(c1)Nc1cc(c(F)cn1)-c1ccc(F)cc1OCCCCCN2 (racemic)
**Q:** So which one has the bigger pIC50 here, A or B ? Respond with the label that goes with your answer.
**A:** B
